Target or system Adenosine receptor A1 (Bos taurus, UniProt P28190): recorded Ki listed per item.
measure name: Ki

compound: CCCn1c(=O)c2[nH]c(-c3ccc(Cl)cc3N)nc2n(CCC)c1=O
measure name: Ki
reported result: 0.0003 µM
//
compound: CC(C)Cn1c(=O)n(C)c(=O)c2[nH]cnc21
measure name: Ki
reported result: 2.5 µM
//
compound: CCCn1c(=O)[nH]c(=O)c2[nH]cnc21 [3-Propylxanthine (enprofylline)]
measure name: Ki
reported result: > 10 µM
//
compound: O=c1[nH]c(=O)c2[nH]cnc2[nH]1
measure name: Ki
reported result: > 10 µM
//
compound: Cn1cnc2c1c(=O)[nH]c(=O)n2C
measure name: Ki
reported result: > 10 µM
//
compound: CC(=O)Oc1ccc(-c2nc3c([nH]2)c(=O)n(C)c(=O)n3C)cc1
measure name: Ki
reported result: 0.023 µM
//
compound: Cn1c(=O)[nH]c2ncn(C)c2c1=O
measure name: Ki
reported result: > 10 µM
//
compound: Cn1c(=O)c2c(ncn2CCO)n(C)c1=O [BETA-HYDROXYETHYL THEOPHYLLINE]
measure name: Ki
reported result: > 10 µM
